assay: Plasma concentration in Dunkin-Hartley guinea pig MIA-induced osteoarthritic pain model at 250 mg/kg, po measured 2 hrs post dose
Type: ADME, organism-based, Cavia porcellus
observedProperty: concentration at 2 h (ng/mL)
Answers are plain numbers, in ng/mL.

Returns the measured concentration at 2 h for the input compound. Input: `CC1(C)Cc2c(c(C(=O)Nc3ccc(F)c(C(F)(F)F)c3)cc3nc(Nc4c(F)cccc4Cl)[nH]c23)O1`
1510

====

assay: Clearance in cynomolgus monkey at 1 mg/kg, iv
Type: ADME, organism-based, Macaca fascicularis
settings: in vivo
observedProperty: clearance (mL/min/kg)
One number for each entry, in mL/min/kg.

[
  {
    "cpdSmiles": "Cc1cccc(Cl)c1Nc1nc2cc(C(=O)Nc3cc(C(F)(F)F)ccc3F)c3c(c2[nH]1)CC(C)(C)O3",
    "clearance (mL/min/kg)": 1.6
  }
]

Turning now to a further compound:
Returns the measured clearance for the input compound. Input: `CC1(C)Cc2c(c(C(=O)Nc3ccc(C(F)(F)F)cn3)cc3nc(Nc4c(Cl)cccc4Cl)[nH]c23)O1`
8.5
